system: 17-beta-hydroxysteroid dehydrogenase type 1 (Homo sapiens) (UniProt P14061)
Sequence (whole entry): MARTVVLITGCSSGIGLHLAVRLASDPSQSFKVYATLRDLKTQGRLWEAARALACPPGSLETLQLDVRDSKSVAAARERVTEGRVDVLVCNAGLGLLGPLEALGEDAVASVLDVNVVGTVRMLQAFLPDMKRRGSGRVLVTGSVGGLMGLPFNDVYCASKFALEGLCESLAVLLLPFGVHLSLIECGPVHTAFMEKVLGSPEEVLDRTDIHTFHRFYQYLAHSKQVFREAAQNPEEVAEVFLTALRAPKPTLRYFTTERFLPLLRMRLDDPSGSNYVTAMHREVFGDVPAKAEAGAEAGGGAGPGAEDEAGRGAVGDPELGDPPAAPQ
test method notes: Inhibition of 17beta-HSD1 over-expressed in intact HEK293 cells at 1 uM
Type: cell-based
readout: inhibition (%)

[
  {
    "smiles data": "CCCCN(C)C(=O)CCCCCC[C@@H]1C[C@@H]2[C@H](CC[C@]3(C)[C@@H](O)CC[C@@H]23)c2cc(OC)c(O)cc21",
    "system": "17-beta-hydroxysteroid dehydrogenase type 1 (Homo sapiens) (UniProt P14061)",
    "reading unit": "%",
    "endpoint result": 15
  },
  {
    "smiles data": "CCCCN(C)C(=O)CCCCCC[C@H]1C[C@@H]2[C@H](CC[C@]3(C)C(=O)CC[C@@H]23)c2ccc(O)cc21",
    "system": "17-beta-hydroxysteroid dehydrogenase type 1 (Homo sapiens) (UniProt P14061)",
    "reading unit": "%",
    "endpoint result": 5
  },
  {
    "smiles data": "CCCCN(C)C(=O)CCCCCS[C@@H]1C[C@@H]2[C@H](CC[C@]3(C)[C@@H](O)CC[C@@H]23)c2ccc(O)cc21",
    "system": "17-beta-hydroxysteroid dehydrogenase type 1 (Homo sapiens) (UniProt P14061)",
    "reading unit": "%",
    "endpoint result": 45
  },
  {
    "smiles data": "CCCCN(C)C(=O)CCCCCC[C@@H]1C[C@@H]2[C@H](CC[C@]3(C)[C@@H](O)CC[C@@H]23)c2ccc(O)cc21",
    "system": "17-beta-hydroxysteroid dehydrogenase type 1 (Homo sapiens) (UniProt P14061)",
    "reading unit": "%",
    "endpoint result": 21
  },
  {
    "smiles data": "CCCCN(C)C(=O)CCCCCC[C@@H]1C[C@@H]2[C@H](CC[C@]3(C)C(=O)CC[C@@H]23)c2ccc(O)cc21",
    "system": "17-beta-hydroxysteroid dehydrogenase type 1 (Homo sapiens) (UniProt P14061)",
    "reading unit": "%",
    "endpoint result": 20
  },
  {
    "smiles data": "CCCCN(C)C(=O)CCCCCC[C@H]1C[C@@H]2[C@H](CC[C@]3(C)[C@@H](O)CC[C@@H]23)c2ccc(O)cc21",
    "system": "17-beta-hydroxysteroid dehydrogenase type 1 (Homo sapiens) (UniProt P14061)",
    "reading unit": "%",
    "endpoint result": 11
  },
  {
    "smiles data": "C[C@]12CC[C@@H]3c4ccc(O)cc4CC[C@H]3[C@@H]1CCC2=O",
    "system": "17-beta-hydroxysteroid dehydrogenase type 1 (Homo sapiens) (UniProt P14061)",
    "reading unit": "%",
    "endpoint result": 38
  }
]
